Test system: TK-10 renal
TEST_DESCRIPTION: NCI-60 one-dose screen, 48 h (100 = growth as untreated, 0 = no growth, -100 = all killed)
CONDITIONS: 10 µM unless noted
About 83,000 compounds went through this panel and 20% of them were active in at least one assay; those are over-represented in the sample as a whole.
EXPERIMENTAL_ENDPOINT: growth (%)
One number for each entry, in %.

A selection of reference data follows.
COMPOUND | VAL
O=C(Nc1ccc(Oc2cccc(F)c2)c(Cl)c1)c1cccnc1 | 59.9
[O-]/[N+](=C\c1ccc(-n2cc(Cc3ccccc3Cc3cn(-c4ccc(/C=[N+](/[O-])c5ccccc5)cc4)nn3)nn2)cc1)c1ccccc1 | 121
COc1cc(NS(=O)(=O)c2ccc(-c3cnc(C4CC4)o3)cc2)ccc1F | 43.8
O=C(Nc1nc2ccc(C(=O)N3CCN(/C=C/c4ccccc4)CC3)cc2s1)c1ccc(NCCc2ccccc2)c([N+](=O)[O-])c1 | 87.7
COCCn1cc(-c2csc(-c3cn(C)c4ccc(Br)cc34)n2)c2cccnc21 | 61.5

// input: 3 compounds below; output: growth for each
1. COc1cc2c(c(OC)c1OC)CCC(c1cccc(C(=O)Nc3ccc(C#N)cc3)c1)O2 (centres undefined)
2. CCn1c(SCC(=O)N/N=C(\C)c2ccc(Cl)cc2)nc2c1c(=O)n(C)c(=O)n2C
3. c1csc(-c2ccc(CNc3c4ccccc4nc4ccccc34)cc2)c1

result:
57.6
125
65.1

query: For "CCCC/C=C/[C@@H]1C[C@H]1CCO" , what is its reported growth?
result: 96.4

###

Would you kindly list growth for each of these compounds?
Tested on: MDA-MB-231 breast
TEST_DESCRIPTION: NCI-60 one-dose screen, 48 h (100 = growth as untreated, 0 = no growth, -100 = all killed)
CONDITIONS: 10 µM unless noted
This is part of a sample that, as a whole, favours compounds with a hit. Of some 83,000 tested, about 20% had one in any assay. Active and inactive are the calls of the source. Rule for the calls: active = growth percent below 10; inactive = the rest.

MOL | EXPERIMENTAL_ENDPOINT | VAL
CCn1c(SCC(=O)N/N=C(\C)c2ccc(Cl)cc2)nc2c1c(=O)n(C)c(=O)n2C | growth | 104% (inactive)
O=C1Nc2ccccc2/C1=C/c1nc2ccccc2c(=O)[nH]1 | growth | 84.5% (inactive)
CC(C)=CC(=O)OCC(=O)O[C@@H]1C[C@]2(C(C)C)O[C@@]1(C)[C@@H]1CC[C@@H](C)[C@H]1[C@@H]2OC(=O)/C=C/c1ccccc1 | growth | 90.9% (inactive)
C=C(C)[C@@H]1CC[C@]2(C(=O)N3CCOCC3)CC[C@]3(C)[C@H](CC[C@@H]4[C@@]5(C)C/C(=C/c6ccncc6)C(=O)C(C)(C)[C@@H]5CC[C@]43C)[C@@H]12 | growth | 78.6% (inactive)

query: For "O=C(NCCCl)Nc1ncccc1OCc1ccccc1" , what is its reported growth?
result: 101% (inactive)

###

Would you kindly list growth for each of these compounds?
System: U251 CNS
TEST_DESCRIPTION: NCI-60 one-dose screen, 48 h (100 = growth as untreated, 0 = no growth, -100 = all killed)
CONDITIONS: 10 µM unless noted
Method: Growth inhibition of the U251 human tumor cell line is measured as a screen for anti-cancer activity. Cells are grown in 96 well plates and exposed to the test compound for 48 hours. Compounds are tested at a single concentration, which is 10^-5 M for most compounds. The reported endpoint is percent growth (GI% or GIPRCNT), where numbers from 0 - 100% represent growth inhibition, and numbers from -100% - 0 represent cell death. For example, a value of 40 represents 60% growth inhibition. […]
The panel holds about 83,000 compounds, 20% with a hit somewhere; the sample as a whole holds those more often. Calls of active or inactive are those of the source. The calls were made as follows: active = growth percent below 10; inactive = the rest.

A selection of reference data follows.
COMPOUND | TARGET | growth
CCN(CC)CCn1c2ccc(OC)cc2c2sc3cc(OC)ccc3c(=O)c21 | U251 CNS | 20.5% (inactive)
O=C(CN1CCCCC1)Nc1nc(-c2cc3ccccc3oc2=O)cs1 | U251 CNS | 97.4% (inactive)
NC(=O)c1c(NC(=O)c2ccc3ccccc3c2)sc2c1CCC(=O)C2 | U251 CNS | 22.9% (inactive)
CN(C)CC(C)(C)C(=O)/C=C/c1ccccc1 | U251 CNS | -41.5% [25 µM] (active)
O=C1c2ccccc2-c2c1c1c(=O)[nH]c3ccccc3c1n2Cc1ccccc1 | U251 CNS | 68.6% (inactive)
N=C(N)c1ccc(-c2ccc(-c3ccc(Cl)cc3Cl)s2)cc1 | U251 CNS | -45.4% (active)
CCCCNC(=O)Oc1ccc(/C(=C(/C)Cc2ccc(OC)cc2)c2ccc(OCCN(CC)CC)cc2)cc1 | U251 CNS | 59% (inactive)
CCCCCCCCCCC(CN(CC)CC)C(O)c1ccccc1 (stereo not given) | U251 CNS | 12.9% (inactive)
COc1cc2c(c(OC)c1OC)CCC(c1cccc(C(=O)Nc3ccc(C#N)cc3)c1)O2 (stereo not given) | U251 CNS | 64.2% (inactive)

query: Please provide the recorded growth for "COc1cc(NS(=O)(=O)c2ccc(-c3cnc(C4CC4)o3)cc2)ccc1F" , tested on U251 CNS.
result: 22.1% (inactive)
